- SYSTEM UNDER TEST: BChE (Homo sapiens, UniProt P06276)
- Sequence (P06276 29-602): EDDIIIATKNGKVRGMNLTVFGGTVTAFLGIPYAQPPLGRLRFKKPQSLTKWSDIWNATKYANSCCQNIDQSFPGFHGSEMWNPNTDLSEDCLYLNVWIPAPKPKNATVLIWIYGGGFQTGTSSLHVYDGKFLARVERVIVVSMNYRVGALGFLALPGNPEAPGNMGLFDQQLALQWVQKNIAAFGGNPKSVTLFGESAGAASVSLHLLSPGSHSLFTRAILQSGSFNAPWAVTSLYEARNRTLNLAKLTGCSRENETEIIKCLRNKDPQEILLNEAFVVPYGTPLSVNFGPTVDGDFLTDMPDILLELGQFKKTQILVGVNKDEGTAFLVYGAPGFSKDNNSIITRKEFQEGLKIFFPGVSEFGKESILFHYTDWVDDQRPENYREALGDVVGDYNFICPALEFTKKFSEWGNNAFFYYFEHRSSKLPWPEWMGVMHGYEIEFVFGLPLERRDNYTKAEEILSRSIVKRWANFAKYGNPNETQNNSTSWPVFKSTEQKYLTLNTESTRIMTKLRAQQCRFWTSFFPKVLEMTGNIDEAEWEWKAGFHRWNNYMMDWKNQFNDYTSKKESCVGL
- ASSAY DETAILS: biochemical
- CONDITION: 10^–4 M
VALUE TYPE: inhibition at 100 µM
# include the unit after the value

Request: Recall and state the measured inhibition at 100 µM for COc1ccc2c(c1)C(=O)/C(=C/c1ccc(NC(=O)CN(C)CCCN(C)C)cc1)C2 .
Result: 90.6%

Request: Recall and state the measured inhibition at 100 µM for COc1cc2c(cc1OC)C(=O)/C(=C/c1ccc(NC(=O)CN3CCN(CCO)CC3)cc1)C2 .
Result: 41.8%

Request: Recall and state the measured inhibition at 100 µM for COc1cc2c(cc1OC)C(=O)/C(=C/c1ccc(NC(=O)CN(C)CCN(C)C)cc1)C2 .
Result: 41%

Request: Recall and state the measured inhibition at 100 µM for CCN(CC)CCN(CC)CC(=O)Nc1ccc(/C=C2\Cc3cc(OC)c(OC)cc3C2=O)cc1 .
Result: 45.9%

Request: Recall and state the measured inhibition at 100 µM for C#CCN1CCN(CC(=O)Nc2ccc(/C=C3\Cc4ccc(OC)cc4C3=O)cc2)CC1 .
Result: 33.9%

Request: Recall and state the measured inhibition at 100 µM for COc1ccc2c(c1)C/C(=C\c1ccc(NC(=O)CN3CCN(CCCO)CC3)cc1)C2=O .
Result: 32.5%

Request: Recall and state the measured inhibition at 100 µM for C#CCN1CCN(CC(=O)Nc2ccc(/C=C3\Cc4cc(OC)ccc4C3=O)cc2)CC1 .
Result: 26.6%

Request: Recall and state the measured inhibition at 100 µM for COc1ccc2c(c1)C(=O)/C(=C/c1ccc(NC(=O)CN3CCN(CCO)CC3)cc1)C2 .
Result: 21.1%

Request: Recall and state the measured inhibition at 100 µM for COc1ccc2c(c1)C(=O)/C(=C/c1ccc(NC(=O)CN3CCN(CCN(C)C)CC3)cc1)C2 .
Result: 41.5%

---

- SYSTEM UNDER TEST: UniProtKB P22303
- Sequence (P22303 32-614): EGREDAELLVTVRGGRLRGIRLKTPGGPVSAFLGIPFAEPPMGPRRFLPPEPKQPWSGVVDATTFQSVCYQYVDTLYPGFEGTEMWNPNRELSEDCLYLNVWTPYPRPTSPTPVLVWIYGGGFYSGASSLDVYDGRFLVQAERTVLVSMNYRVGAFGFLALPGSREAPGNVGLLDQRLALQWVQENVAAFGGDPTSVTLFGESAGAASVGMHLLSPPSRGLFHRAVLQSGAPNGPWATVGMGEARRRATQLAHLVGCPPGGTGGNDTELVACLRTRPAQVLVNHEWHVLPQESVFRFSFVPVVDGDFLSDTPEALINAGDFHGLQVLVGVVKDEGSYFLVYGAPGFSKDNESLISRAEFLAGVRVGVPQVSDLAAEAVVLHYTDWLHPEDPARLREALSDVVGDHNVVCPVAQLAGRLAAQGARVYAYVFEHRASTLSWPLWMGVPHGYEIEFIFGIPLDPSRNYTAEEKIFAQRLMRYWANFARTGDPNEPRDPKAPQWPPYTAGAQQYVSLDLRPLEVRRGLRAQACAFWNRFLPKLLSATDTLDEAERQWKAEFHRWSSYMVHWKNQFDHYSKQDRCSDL
- ASSAY DETAILS: biochemical
- CONDITION: 10^–6 M
VALUE TYPE: inhibition at 1 µM (%)
Please state the figure in %; there is no need to write the unit.

Request: Recall and state the measured inhibition at 1 µM for COc1cc2c(cc1OC)C(=O)/C(=C/c1ccc(NC(=O)CN(C)CCCN(C)C)cc1)C2 [D39] .
Result: 73.3

Request: Recall and state the measured inhibition at 1 µM for COc1ccc2c(c1)C/C(=C\c1ccc(NC(=O)CN3CCN(CCCO)CC3)cc1)C2=O [D19] .
Result: 82.1

Request: Recall and state the measured inhibition at 1 µM for COc1ccc2c(c1)C/C(=C\c1ccc(NC(=O)CN3CCN(CCCN(C)C)CC3)cc1)C2=O [D25] .
Result: 58.9

Request: Recall and state the measured inhibition at 1 µM for COc1cc2c(cc1OC)C(=O)/C(=C/c1ccc(NC(=O)CN3CCN(CCCO)CC3)cc1)C2 [D21] .
Result: 81.8

---

Record form. Attribute: inhibition at 0.1 µM. Fill in for each entry.
- SYSTEM UNDER TEST: MAO-B (Homo sapiens)
- Sequence (P27338 1-520): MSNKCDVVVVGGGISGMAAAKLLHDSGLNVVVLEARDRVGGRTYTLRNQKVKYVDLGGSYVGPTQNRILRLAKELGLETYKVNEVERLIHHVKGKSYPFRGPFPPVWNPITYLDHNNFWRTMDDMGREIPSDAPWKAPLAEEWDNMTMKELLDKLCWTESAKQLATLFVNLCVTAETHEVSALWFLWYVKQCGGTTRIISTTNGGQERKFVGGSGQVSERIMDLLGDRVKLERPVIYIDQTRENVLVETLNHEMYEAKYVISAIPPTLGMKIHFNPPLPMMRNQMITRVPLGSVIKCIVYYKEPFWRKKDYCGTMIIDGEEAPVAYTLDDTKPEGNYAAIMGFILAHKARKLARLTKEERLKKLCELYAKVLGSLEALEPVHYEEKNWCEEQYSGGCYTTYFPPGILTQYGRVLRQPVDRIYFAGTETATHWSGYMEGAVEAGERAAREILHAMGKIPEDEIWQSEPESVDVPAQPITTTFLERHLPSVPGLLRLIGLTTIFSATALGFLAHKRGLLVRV
- ASSAY DETAILS: In vitro MAO-B inhibition assay (fluorometric)
- Assay type: biochemical
- CONDITION: 10^–7 M
Please state the figure in %; there is no need to write the unit.

Request: Recall and state the measured inhibition at 0.1 µM for COc1cc2c(cc1OC)C(=O)/C(=C/c1ccc(NC(=O)CN(C)CCCN(C)C)cc1)C2 [D39] .
Result: 60.2

Request: Recall and state the measured inhibition at 0.1 µM for CCCN(C)CC(=O)Nc1ccc(/C=C2\Cc3cc(OC)c(OC)cc3C2=O)cc1 [D30] .
Result: 66

Request: Recall and state the measured inhibition at 0.1 µM for CCN(CC)CCN(CC)CC(=O)Nc1ccc(/C=C2\Cc3cc(OC)ccc3C2=O)cc1 [D40] .
Result: 43.1

Request: Recall and state the measured inhibition at 0.1 µM for C#CCN(C)CC(=O)Nc1ccc(/C=C2\Cc3cc(OC)ccc3C2=O)cc1 [D31] .
Result: 61.9

Request: Recall and state the measured inhibition at 0.1 µM for COc1ccc2c(c1)C/C(=C\c1ccc(NC(=O)CN(C)CCCN(C)C)cc1)C2=O [D37] .
Result: 72.2

Request: Recall and state the measured inhibition at 0.1 µM for CCCN(C)CC(=O)Nc1ccc(/C=C2\Cc3cc(OC)ccc3C2=O)cc1 [D28] .
Result: 67

Request: Recall and state the measured inhibition at 0.1 µM for COc1ccc2c(c1)C(=O)/C(=C/c1ccc(NC(=O)CN(C)CCCN(C)C)cc1)C2 [D38] .
Result: 62.5

Request: Recall and state the measured inhibition at 0.1 µM for CCN(CC)CCN(CC)CC(=O)Nc1ccc(/C=C2\Cc3ccc(OC)cc3C2=O)cc1 [D41] .
Result: 42.2

Request: Recall and state the measured inhibition at 0.1 µM for CCCN(C)CC(=O)Nc1ccc(/C=C2\Cc3ccc(OC)cc3C2=O)cc1 [D29] .
Result: 66

Request: Recall and state the measured inhibition at 0.1 µM for C#CCN(C)CC(=O)Nc1ccc(/C=C2\Cc3ccc(OC)cc3C2=O)cc1 [D32] .
Result: 59.6

---

- SYSTEM UNDER TEST: UniProtKB P27338
- ASSAY DETAILS: In vitro MAO-B inhibition assay (fluorometric)
- Format: biochemical
- CONDITION: 10^–4 M
VALUE TYPE: inhibition at 100 µM (%)
Please state the figure in %; there is no need to write the unit.

Request: Recall and state the measured inhibition at 100 µM for CCN(CC)CCN(CC)CC(=O)Nc1ccc(/C=C2\Cc3ccc(OC)cc3C2=O)cc1 .
Result: 81.8

Request: Recall and state the measured inhibition at 100 µM for CCN1CCN(CC(=O)Nc2ccc(/C=C3\Cc4ccc(OC)cc4C3=O)cc2)CC1 .
Result: 44.4

Request: Recall and state the measured inhibition at 100 µM for COc1cc2c(cc1OC)C(=O)/C(=C/c1ccc(NC(=O)CN3CCN(CCO)CC3)cc1)C2 .
Result: 47.3

Request: Recall and state the measured inhibition at 100 µM for COc1ccc2c(c1)C(=O)/C(=C/c1ccc(NC(=O)CN3CCN(CCCN(C)C)CC3)cc1)C2 .
Result: 41.3

Request: Recall and state the measured inhibition at 100 µM for C=CCN1CCN(CC(=O)Nc2ccc(/C=C3\Cc4cc(OC)c(OC)cc4C3=O)cc2)CC1 .
Result: 34.8

---

- SYSTEM UNDER TEST: MAO-B (Homo sapiens)
- Sequence (P27338 1-520): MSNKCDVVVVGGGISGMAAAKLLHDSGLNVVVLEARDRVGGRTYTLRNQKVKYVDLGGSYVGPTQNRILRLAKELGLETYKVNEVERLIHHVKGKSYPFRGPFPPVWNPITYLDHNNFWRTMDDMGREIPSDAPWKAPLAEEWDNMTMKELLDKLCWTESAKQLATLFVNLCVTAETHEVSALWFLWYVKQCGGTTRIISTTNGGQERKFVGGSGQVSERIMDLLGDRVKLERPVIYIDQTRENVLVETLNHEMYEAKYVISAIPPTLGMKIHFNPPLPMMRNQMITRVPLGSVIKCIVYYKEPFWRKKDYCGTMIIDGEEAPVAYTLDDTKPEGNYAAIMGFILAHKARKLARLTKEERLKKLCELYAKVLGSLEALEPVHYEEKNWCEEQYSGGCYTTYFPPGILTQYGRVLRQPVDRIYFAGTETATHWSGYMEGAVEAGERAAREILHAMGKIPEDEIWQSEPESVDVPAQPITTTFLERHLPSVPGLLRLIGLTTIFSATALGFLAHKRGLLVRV
- ASSAY DETAILS: In vitro MAO-B inhibition assay (fluorometric)
- Type: biochemical
- CONDITION: 10^–3 M
VALUE TYPE: inhibition at 1000 µM (%)
Please state the figure in %; there is no need to write the unit.

Request: Recall and state the measured inhibition at 1000 µM for COc1cc2c(cc1OC)C(=O)/C(=C/c1ccc(NC(=O)CN3CCN(CCCO)CC3)cc1)C2 .
Result: 93.5

Request: Recall and state the measured inhibition at 1000 µM for COc1cc2c(cc1OC)C(=O)/C(=C/c1ccc(NC(=O)CN3CCN(C)CC3)cc1)C2 .
Result: 67.2

Request: Recall and state the measured inhibition at 1000 µM for CCCN(C)CC(=O)Nc1ccc(/C=C2\Cc3cc(OC)c(OC)cc3C2=O)cc1 .
Result: 97.5

Request: Recall and state the measured inhibition at 1000 µM for COc1cc2c(cc1OC)C(=O)/C(=C/c1ccc(NC(=O)CN3CCN(CCCN(C)C)CC3)cc1)C2 .
Result: 94.6

Request: Recall and state the measured inhibition at 1000 µM for C#CCN(C)CC(=O)Nc1ccc(/C=C2\Cc3cc(OC)c(OC)cc3C2=O)cc1 .
Result: 82.1
